System: PAE 105250
method.notes: MIC, broth microdilution (CLSI), substance alone or ATB combined with compound at 4 or 8 μg/mL
Assay type: cell-based, P. aeruginosa
condition: ATB FEP; compound @8 μg/ml; PAE 105250
reported.property: MIC ATB combined with compound (µg/mL)
Please respond with the number in µg/mL and leave the unit unwritten.

Known results for molecules:
In: # input molecule: O=C1N2CC(c3ncco3)=CC(C2)N1OC(F)(F)C(=O)O (centres unmarked) [Example 7] ; wanted: its MIC ATB combined with compound
Out: 8

In: Looking for the measured MIC ATB combined with compound of O=C(O)C(F)(F)F.O=C1N2C[C@H](c3scnc3[C@H]2c2ncc[nH]2)N1OS(=O)(=O)[O-].[Na+] (relative stereo) [Example 6] , can you help?
Out: 8

Moving on to another molecule below.
In: I'd like to know its MIC ATB combined with compound. The molecule in question is O=C1N2CC(c3cccnc3)=CC(C2)N1OS(=O)(=O)[O-].[Na+] (centres unmarked) [Example 8]
Out: 4
